These measurements were taken from patent US9815825B2.

Target: delF508-CFTR Cl-channels (Homo sapiens, UniProt P13569, DEL508-508)
Sequence (P13569 with tags, fused parts or gaps DEL508-508): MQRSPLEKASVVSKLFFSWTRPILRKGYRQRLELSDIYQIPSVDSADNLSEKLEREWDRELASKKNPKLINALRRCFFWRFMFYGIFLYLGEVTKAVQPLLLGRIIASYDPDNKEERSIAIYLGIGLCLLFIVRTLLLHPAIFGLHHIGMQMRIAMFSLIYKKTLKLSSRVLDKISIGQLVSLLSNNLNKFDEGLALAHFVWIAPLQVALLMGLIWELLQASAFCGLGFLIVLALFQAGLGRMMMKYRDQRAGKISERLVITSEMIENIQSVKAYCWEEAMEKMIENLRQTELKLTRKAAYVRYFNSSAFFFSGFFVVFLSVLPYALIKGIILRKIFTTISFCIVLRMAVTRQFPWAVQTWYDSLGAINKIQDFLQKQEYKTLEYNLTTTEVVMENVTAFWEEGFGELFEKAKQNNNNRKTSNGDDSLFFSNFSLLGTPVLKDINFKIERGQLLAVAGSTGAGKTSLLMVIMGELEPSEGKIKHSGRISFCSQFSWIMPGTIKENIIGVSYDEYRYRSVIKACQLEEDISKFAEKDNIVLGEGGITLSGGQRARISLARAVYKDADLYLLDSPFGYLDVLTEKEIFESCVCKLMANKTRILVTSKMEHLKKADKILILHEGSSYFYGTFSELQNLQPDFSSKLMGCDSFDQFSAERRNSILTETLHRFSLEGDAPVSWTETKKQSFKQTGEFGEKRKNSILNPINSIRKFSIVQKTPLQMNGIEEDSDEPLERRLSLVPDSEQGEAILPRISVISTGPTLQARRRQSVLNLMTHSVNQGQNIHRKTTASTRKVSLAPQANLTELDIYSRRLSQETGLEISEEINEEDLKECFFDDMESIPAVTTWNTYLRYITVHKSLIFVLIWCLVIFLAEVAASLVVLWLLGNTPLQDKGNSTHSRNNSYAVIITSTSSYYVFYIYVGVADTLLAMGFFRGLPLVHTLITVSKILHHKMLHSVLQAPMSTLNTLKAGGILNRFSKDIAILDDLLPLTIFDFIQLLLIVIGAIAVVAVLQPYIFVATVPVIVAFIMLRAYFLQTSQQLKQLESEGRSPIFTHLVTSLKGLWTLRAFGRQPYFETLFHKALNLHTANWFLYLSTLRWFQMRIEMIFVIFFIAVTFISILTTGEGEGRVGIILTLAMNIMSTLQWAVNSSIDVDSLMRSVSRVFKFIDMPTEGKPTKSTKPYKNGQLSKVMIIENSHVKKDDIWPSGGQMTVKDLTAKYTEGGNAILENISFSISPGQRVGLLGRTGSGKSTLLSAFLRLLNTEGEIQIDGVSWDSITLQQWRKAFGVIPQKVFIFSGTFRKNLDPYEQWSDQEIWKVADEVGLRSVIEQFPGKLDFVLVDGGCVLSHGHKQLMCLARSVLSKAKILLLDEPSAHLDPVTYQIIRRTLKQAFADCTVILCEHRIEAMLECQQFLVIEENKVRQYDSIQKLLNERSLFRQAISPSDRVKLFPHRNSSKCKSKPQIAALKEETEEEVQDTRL
Assay: Epithelial VoltOhmmeter (EVOM) electrical bioassay, drop in transepithelial resistance
Type: cell-based
Design: The methods optionally include a CF bronchial epithelial cell that endogenously expresses a CFTR mutation; endogenous in cells; probably CFBE41o-
Settings: 8-point or 12-point concentration-response curve
# Maximum Effective Dose values compiled below
The figure you give is taken to be in µM; do not add the unit.

{"columns": ["mol", "Maximum Effective Dose (µM)"],
 "data": [
  ["CN(C)CCOc1ccccc1Nc1nc(-c2cc3cccc(Cl)c3oc2=O)cs1", 10],
  ["Cc1ccccc1Nc1nc(-c2cc3cccc(Cl)c3oc2=O)cs1", 30],
  ["CCOC(=O)c1csc(-c2cc3cccc(Cl)c3oc2=O)n1", 30]
]}

Problem: Entry Cc1cc(C)cc(Nc2ncc(-c3cc4cccc(Cl)c4oc3=O)s2)c1 has what Maximum Effective Dose?
Solution: 10
